In this section, each of the compounds is paired with its reported TGI.
Tested on: ACHN renal
protocol-details: NCI tumour cell line growth inhibition, 48 h

Here's what some known entries look like.
INSERT INTO results (compound, reading) VALUES
  ('CCc1ccc(NC(=O)NC(=O)c2ccccc2[N+](=O)[O-])cc1Oc1ncc(Cl)cn1', '> 100 µM'),
  ('CCC1CC2C(=O)N(c3ccccc3)C(=O)C2c2[nH]c3ccccc3c21 (stereo not drawn)', '> 100 µM'),
  ('CCOC(=O)C(Cc1c[nH]c2c(N(CCO)CCO)cccc12)(NC(C)=O)C(=O)OCC', '> 1000 µM');

# query: TGI of entry COc1cc2ncn(-c3cc(OCc4ccccc4C(F)(F)F)c(C(=O)N(C)C)s3)c2cc1OC
> 25 µM

# query: TGI of entry C=C(CC(NC(=O)c1ccc(C(CC)Cc2cnc3nc(N)nc(N)c3n2)cc1)C(=O)O)C(=O)O (stereo not drawn)
> 100 µM

# query: TGI of entry CC[C@H](Nc1ncnc2nc[nH]c12)c1nc2cccc(F)c2c(=O)n1-c1ccccc1
> 100 µM

# query: TGI of entry O=S(=O)(O)c1cc(N=Nc2c(O)ccc3ccccc23)ccc1/C=C/c1ccc(N=Nc2c(O)ccc3ccccc23)cc1S(=O)(=O)O
> 100 µM

# query: TGI of entry Cc1nc(-c2ccccc2)n2nc(NCCCN3CCOCC3)ncc12
> 25 µM
